- Test system: NOMO1
- RUN_DESCRIPTION: cell viability relative to DMSO control; higher = less cytotoxic
- STATED_CONDITIONS: HPLM + 10% dialyzed FBS; 48 h; 0.00234 µM
Recorded cell viability for the following molecules

{"MOLECULE": "c1cc(OCCN2CCCCC2)cc(-c2n[nH]c3ccc(-c4nc[nH]n4)cc23)c1", "cell viability (%)": 120}
{"MOLECULE": "Cl.Cl.Fc1ccc(C(OCCN2CCN(CCCc3ccccc3)CC2)c2ccc(F)cc2)cc1", "cell viability (%)": 113}
{"MOLECULE": "NC12CC3CC(CC(C3)C1)C2", "cell viability (%)": 104}
{"MOLECULE": "c1ccc2c(-c3cnn4cc(-c5ccc(N6CCNCC6)cc5)cnc34)ccnc2c1", "cell viability (%)": 77.8}
{"MOLECULE": "COc1ccc(-c2nc3cc(C4=NNC(=O)CC4C)ccc3[nH]2)cc1 (centres undefined)", "cell viability (%)": 117}
{"MOLECULE": "COc1cc(/C=C/C(=O)CC(=O)/C=C/c2ccc(O)c(OC)c2)ccc1O", "cell viability (%)": 105}
{"MOLECULE": "N#Cc1c(C2CCNCC2)cc(-c2c(O)cccc2OCC2CC2)nc1N", "cell viability (%)": 116}
{"MOLECULE": "COc1ccc(CCC(=O)Nc2nc3ccc(Cl)cc3s2)cc1OC", "cell viability (%)": 106}
{"MOLECULE": "CN(C)[C@H]\\1[C@@H]2[C@@H](O)[C@@H]\\3C(=C)C4=C(C(=CC=C4)O)C(=O)C3=C(\\O)[C@@]2(O)C(=O)\\C(=C1O)C(N)=O", "cell viability (%)": 120}

###

- Tested on: P12-Ichikawa
- RUN_DESCRIPTION: cell viability relative to DMSO control; higher = less cytotoxic
- STATED_CONDITIONS: RPMI 5 mM glucose + 10% dialyzed FBS; 48 h; 0.00234 µM
ASSAY_READOUT: cell viability (%)

{"SMILES_DATA": "NC\\1=N\\C(=O)N(\\C=N1)[C@H]2C[C@H](O)[C@@H](CO)O2", "TARGET_SYSTEM": "P12-Ichikawa", "UNIT_SPEC": "%", "READOUT_VALUE": 109}
{"SMILES_DATA": "N/C(=N\\C(=O)c1nc(Cl)c(N)nc1N)NCc1ccccc1", "TARGET_SYSTEM": "P12-Ichikawa", "UNIT_SPEC": "%", "READOUT_VALUE": 94.1}
{"SMILES_DATA": "C[C@H]1[C@@H](CC(C[C@H]2O[C@@H]3O[C@]4(C)CC[C@H]5[C@H](C)CC[C@@H]([C@H]2C)[C@@]35OO4)C[S+](=O)([O-])c2ccc(COC(=O)N(C)C)cc2)O[C@@H]2O[C@]3(C)CC[C@H]4[C@H](C)CC[C@@H]1[C@@]24OO3", "TARGET_SYSTEM": "P12-Ichikawa", "UNIT_SPEC": "%", "READOUT_VALUE": 110}
{"SMILES_DATA": "CC(C)[C@@H](N(CCCN)C(=O)C1=CC=C(C)C=C1)C/2=C(\\CC3=CC=CC=C3)C(=O)C4=C(O2)C=C(Cl)C=C4", "TARGET_SYSTEM": "P12-Ichikawa", "UNIT_SPEC": "%", "READOUT_VALUE": 20.4}
{"SMILES_DATA": "CCC1=C(C)CN(C(=O)NCCc2ccc(S(=O)(=O)NC(=O)N[C@H]3CC[C@H](C)CC3)cc2)C1=O", "TARGET_SYSTEM": "P12-Ichikawa", "UNIT_SPEC": "%", "READOUT_VALUE": 86}
{"SMILES_DATA": "O=C(c1ccc(F)cc1)C1CCN(CCn2c(=O)[nH]c3ccccc3c2=O)CC1", "TARGET_SYSTEM": "P12-Ichikawa", "UNIT_SPEC": "%", "READOUT_VALUE": 125}
{"SMILES_DATA": "CC(C)(O)CNc1nc(Nc2ccnc(C(F)(F)F)c2)nc(-c2cccc(C(F)(F)F)n2)n1", "TARGET_SYSTEM": "P12-Ichikawa", "UNIT_SPEC": "%", "READOUT_VALUE": 106}
{"SMILES_DATA": "Cc1cnc(Nc2ccc(OCCN3CCCC3)cc2)nc1Nc1cccc([S+](=O)([O-])NC(C)(C)C)c1", "TARGET_SYSTEM": "P12-Ichikawa", "UNIT_SPEC": "%", "READOUT_VALUE": 101}
{"SMILES_DATA": "Cn1cc(-c2ccc3ncc(Cc4ccc5ncccc5c4)n3n2)cn1", "TARGET_SYSTEM": "P12-Ichikawa", "UNIT_SPEC": "%", "READOUT_VALUE": 119}
